Target: P. falciparum apicoplast DNA polymerase (Pf-apPOL) (Plasmodium falciparum, UniProt Q8ILY1)
Sequence (Q8ILY1 entry or part of it): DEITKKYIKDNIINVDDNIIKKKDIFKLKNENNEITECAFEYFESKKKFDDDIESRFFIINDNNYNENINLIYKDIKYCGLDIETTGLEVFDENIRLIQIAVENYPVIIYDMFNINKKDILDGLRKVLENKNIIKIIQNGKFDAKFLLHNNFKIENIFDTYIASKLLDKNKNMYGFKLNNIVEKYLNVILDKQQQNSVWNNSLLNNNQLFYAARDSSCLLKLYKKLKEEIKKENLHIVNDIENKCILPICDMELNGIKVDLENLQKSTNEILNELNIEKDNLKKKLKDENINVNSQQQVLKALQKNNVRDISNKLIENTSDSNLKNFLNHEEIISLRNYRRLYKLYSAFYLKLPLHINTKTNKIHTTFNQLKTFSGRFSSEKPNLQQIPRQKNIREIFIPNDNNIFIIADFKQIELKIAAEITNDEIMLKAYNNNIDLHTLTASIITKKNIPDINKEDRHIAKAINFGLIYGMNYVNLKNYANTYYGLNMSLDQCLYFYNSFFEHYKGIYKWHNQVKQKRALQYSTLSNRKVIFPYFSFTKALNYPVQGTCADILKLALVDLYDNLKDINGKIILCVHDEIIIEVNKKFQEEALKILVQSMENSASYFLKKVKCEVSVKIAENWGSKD
Experiment: Fluorescence-based high-throughput DNA polymerase assay (molecular beacon), primary screen and dose-response
Type: biochemical
Conditions: DRC-1; 10'; concentration 10
measured-attribute: % inhibition Apo pol 10'
// unit must come after the numeric part

Requested field: % inhibition Apo pol 10'. Item: O=C(O)c1c(F)c(F)c(-c2c(F)c(F)c(C(=O)O)c(F)c2F)c(F)c1F 21.422%

Requested field: % inhibition Apo pol 10'. Item: Cc1cccc2c(C(=O)NC(C)C)cc(N(C)C)nc12 30.9701%

Requested field: % inhibition Apo pol 10'. Item: CCSc1nnc(NC(=O)Cc2csc(NC(=O)c3cnccn3)n2)s1 11.7558%

Requested field: % inhibition Apo pol 10'. Item: COc1ccc2c(c1)C(c1ccccc1OC)CC(=O)O2 (centres unmarked) 45.2437%

Requested field: % inhibition Apo pol 10'. Item: CCCCOC(=O)CCCCCN1C(=O)C(=Cc2ccc(OC)cc2)SC1=S 11.988%

Requested field: % inhibition Apo pol 10'. Item: O=C(NC(C(Cl)Cl)S(=O)(=O)c1ccccc1)c1ccccc1 (centres unmarked) 48.7805%

Requested field: % inhibition Apo pol 10'. Item: CCOc1ccc(/C=C2\N=C(c3cc([N+](=O)[O-])cc([N+](=O)[O-])c3)OC2=O)cc1 83.2599%

Requested field: % inhibition Apo pol 10'. Item: CC(C)(C)c1cc(C(=O)C(C#N)=NNc2cccc(Cl)c2)no1 51.803%

====

Answer each item with its documented % inhibition Apol 40'.
Target: P. falciparum apicoplast DNA polymerase (Pf-apPOL) (Plasmodium falciparum, UniProt Q8ILY1)
Experiment: Fluorescence-based high-throughput DNA polymerase assay (molecular beacon), primary screen and dose-response;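 as to % inhibition Apol 40': compound concentration given in µM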
Assay type: biochemical
Conditions: DRC-2; 40'; concentration 20
Kindly answer with a numeric value in %, unit omitted.

Requested field: % inhibition Apol 40'. Item: COCC(=O)Nc1c(-c2cccc(F)c2)nc2cc(C)ccn12 59

Requested field: % inhibition Apol 40'. Item: O=C(Nc1cccc(C(=O)Nc2ccc(S(=O)(=O)[O-])c3cc(S(=O)(=O)[O-])cc(S(=O)(=O)[O-])c23)c1)Nc1cccc(C(=O)Nc2ccc(S(=O)(=O)[O-])c3cc(S(=O)(=O)[O-])cc(S(=O)(=O)[O-])c23)c1.[Na+].[Na+].[Na+].[Na+].[Na+].[Na+] 56

Requested field: % inhibition Apol 40'. Item: Cc1cccc(-c2noc(C(=O)NNC(=O)C(Cl)(Cl)Cl)n2)c1 24

====

Biological target: P. falciparum apicoplast DNA polymerase (Pf-apPOL) (Plasmodium falciparum)
Assay: Fluorescence-based high-throughput DNA polymerase assay (molecular beacon), primary screen and dose-response
Type: biochemical
Conditions: DRC-2, 5', concentration 5
measured-attribute: % inhibition Apo pol 5' (%)
Kindly answer with a numeric value in %, unit omitted.

Requested field: % inhibition Apo pol 5'. Item: CN(C)C=CC(=O)c1ccccn1 18

Requested field: % inhibition Apo pol 5'. Item: CSCCC(C)(O)CNC(=O)C1CC1 (centres unmarked) 4.75

Requested field: % inhibition Apo pol 5'. Item: CO/N=C(\C(=O)N[C@@H]1C(=O)N2C(C(=O)[O-])=C(CSc3nc(=O)c([O-])nn3C)CSC12)c1csc(N)n1.[Na+].[Na+] (some centres unmarked) 6

Requested field: % inhibition Apo pol 5'. Item: COc1cc(/C=C2\S/C(=N/C(C)=O)NC2=O)cc(Br)c1OCC(=O)O 4.4

Requested field: % inhibition Apo pol 5'. Item: O=C(Nc1ncc([N+](=O)[O-])s1)c1ccc2c(c1)C(=O)N(N1C(=O)c3ccccc3C1=O)C2=O 8.46

Requested field: % inhibition Apo pol 5'. Item: COc1ccc(C(=O)Nc2cccc(-c3nc4ncccc4o3)c2)cc1[N+](=O)[O-] 8

Requested field: % inhibition Apo pol 5'. Item: O=C(O)c1c(F)c(F)c(-c2c(F)c(F)c(C(=O)O)c(F)c2F)c(F)c1F 5

Requested field: % inhibition Apo pol 5'. Item: O=[N+]([O-])c1cc2c(cc1CN1CCCCCC1)OCO2 20
